Data provenance is PubChem BioAssay (NCI).

- Tested on: HS 578T breast
- METHOD: NCI-60 one-dose screen, 48 h (100 = growth as untreated, 0 = no growth, -100 = all killed)
- STUDY_CONDITIONS: 10 µM unless noted
About 83,000 compounds went through this panel and 20% of them were active in at least one assay; those are over-represented in the sample as a whole.

>  <COMPOUND>
COC(=O)Nc1nc2ccc(C3(c4ccc(F)cc4)OCCO3)cc2[nH]1

>  <growth [%]>
37.7

$$$$
>  <COMPOUND>
COc1cc(OC)c(/C=C/c2c3ccccc3cc[n+]2C)c(OC)c1

>  <growth [%]>
46.3

$$$$
>  <COMPOUND>
CCOC(=O)c1c(C)[nH]c2ccc(O)cc12

>  <growth [%]>
92

$$$$
>  <COMPOUND>
Cc1cc2nc(CC(=O)c3ccncc3)c(=O)[nH]c2cc1C

>  <growth [%]>
66.8

$$$$
>  <COMPOUND>
CCCCCCCCCCCCN1C(C)=CS/C1=C\C=C\c1scc(C)[n+]1CCCCCCCCCCCC

>  <growth [%]>
76.6

$$$$
>  <COMPOUND>
CCCc1cc(=O)oc2c3c(c4c(c12)OC(C)(C)CC4)OC(C)[C@H](C)[C@@H]3O (stereo not given in full)

>  <growth [%]>
74.7

$$$$
>  <COMPOUND>
C/C(=N\NC(=S)N1CC2CCC(CC2)C1)c1ccccn1

>  <growth [%]>
16.3

$$$$
>  <COMPOUND>
Cc1nnc(N/N=C/c2ccc([N+](=O)[O-])o2)[nH]c1=O

>  <growth [%]>
22

$$$$
>  <COMPOUND>
COc1ccc(C(Cn2ccnc2)Sc2ccc(Cl)c(Cl)c2)cc1 (stereo not given)

>  <growth [%]>
112

$$$$
>  <COMPOUND>
CCCCCCCCCCCCCCCC[N+]1(C)CCCC1c1cccnc1 (stereo not given)

>  <growth [%]>
80.2

$$$$

----------
- System: U251 CNS
- METHOD: NCI-60 one-dose screen, 48 h (100 = growth as untreated, 0 = no growth, -100 = all killed)
- STUDY_CONDITIONS: 10 µM unless noted
This is part of a sample that, as a whole, favours compounds with a hit. Of some 83,000 tested, about 20% had one in any assay. Calls of active or inactive are those of the source. Rule for the calls: active = growth percent below 10; inactive = the rest.
READOUT_TYPE: growth

>  <COMPOUND>
CCCCCCCCCCCCCCCCSC(=NCC)NCC

>  <RECORDED_VALUE>
4.98% (active)

$$$$
>  <COMPOUND>
Oc1c(Cl)cc(Cl)cc1C=NCC1CCC(CN=Cc2cc(Cl)cc(Cl)c2O)CC1 (stereo unspecified)

>  <RECORDED_VALUE>
83% (inactive)

$$$$
>  <COMPOUND>
CCCCCCCCC(=O)OCCCC(CCC(CCC1CCCO1)OC(=O)CCCCCCCC)OC(=O)CCCCCCCC (stereo unspecified)

>  <RECORDED_VALUE>
106% (inactive)

$$$$
>  <COMPOUND>
CCCCC(CCc1ccc([N+](=O)[O-])cc1)(C(C)=O)C(=O)OCC (stereo unspecified)

>  <RECORDED_VALUE>
95.3% (inactive)

$$$$
>  <COMPOUND>
NC(CS/C(Cl)=C/Cl)C(=O)O (stereo unspecified)

>  <RECORDED_VALUE>
84.7% (inactive)

$$$$
>  <COMPOUND>
CCCCCCCCCCCC(=O)OC(C)C(=O)NCCCC (stereo unspecified)

>  <RECORDED_VALUE>
93.7% (inactive)

$$$$
>  <COMPOUND>
Oc1ccc(Nc2ccc3ccccc3c2)cc1

>  <RECORDED_VALUE>
67.5% (inactive)

$$$$
>  <COMPOUND>
Cc1cc(N/N=C/c2ccccn2)nc2ccccc12

>  <RECORDED_VALUE>
4.92% (active)

$$$$
>  <COMPOUND>
CCC(=O)c1cc([N+](=O)[O-])c(Br)s1

>  <RECORDED_VALUE>
93.4% (inactive)

$$$$
>  <COMPOUND>
Cc1cc(C(=O)c2ccc(Cl)cc2)ccc1O

>  <RECORDED_VALUE>
101% (inactive)

$$$$
>  <COMPOUND>
CC1(C)OCC(COC(c2ccccc2)(c2ccccc2)c2ccccc2)O1 (stereo unspecified)

>  <RECORDED_VALUE>
95.3% (inactive)

$$$$
>  <COMPOUND>
CN(C)c1ccc(C(=C2C=CC(=[N+](C)C)C=C2)c2ccc(N(C)C)cc2)cc1

>  <RECORDED_VALUE>
-87.9% (active)

$$$$
>  <COMPOUND>
C/C=C/c1cc2c(c(=O)o1)C(=O)[C@@H](O)[C@H](C)O2

>  <RECORDED_VALUE>
40.4% (inactive)

$$$$
>  <COMPOUND>
O=C(c1ccccc1)c1ccc(O)c2ncccc12

>  <RECORDED_VALUE>
28.4% (inactive)

$$$$
>  <COMPOUND>
O=C(c1ccccc1)C(Br)[N+](=O)[O-] (stereo unspecified)

>  <RECORDED_VALUE>
84.2% (inactive)

$$$$
>  <COMPOUND>
CN(C)CCN(C)CC(C)(C)C(=O)/C=C/c1ccc(Cl)c(Cl)c1

>  <RECORDED_VALUE>
-95.1% [100 µM] (active)

$$$$

----------
- Test system: T-47D breast
- METHOD: NCI-60 one-dose screen, 48 h
- STUDY_CONDITIONS: 10 µM unless noted
Compounds without any hit were thinned out: in the full panel of roughly 83,000, 20% have a hit. Activity calls are given as the source filed them. How the source made its calls: active means growth percent below 10; inactive means the rest.
Outcomes: active, inactive

>  <MOLECULE>
COC1=CC(=O)c2c(O)c3c(c(O)c2C1=O)CC(C)(O)OC3 (centres undefined)

>  <TESTED_TARGET>
T-47D breast

>  <CLASS_ASSIGNMENT>
active

$$$$
>  <MOLECULE>
CC(=O)c1ccc2c(c1)CCc1ccccc1-2

>  <TESTED_TARGET>
T-47D breast

>  <CLASS_ASSIGNMENT>
inactive

$$$$
>  <MOLECULE>
CC1C(c2ccccc2)OCCN1C(=S)Nc1ccc(S(=O)(=O)N2CCCCC2)cc1 (centres undefined)

>  <TESTED_TARGET>
T-47D breast

>  <CLASS_ASSIGNMENT>
inactive

$$$$
>  <MOLECULE>
CCCOS(=O)(=O)c1ccccc1

>  <TESTED_TARGET>
T-47D breast

>  <CLASS_ASSIGNMENT>
inactive

$$$$

----------
- Test system: NCI-H226 lung
- METHOD: NCI-60 one-dose screen, 48 h
- STUDY_CONDITIONS: 10 µM unless noted
This is part of a sample that, as a whole, favours compounds with a hit. Of some 83,000 tested, about 20% had one in any assay. The source made the active and inactive calls. The calls were made as follows: active = growth percent below 10; inactive = the rest.
Outcomes: 1 (active), 0 (inactive)

>  <MOLECULE>
CCCCCC/C=C1\CCC(CN2CCCC2)C1=O (stereo not drawn)

>  <CLASS_ASSIGNMENT>
0

$$$$
>  <MOLECULE>
O=C(c1ccccc1)C(O)C(Br)(CBr)c1ccccc1 (stereo not drawn)

>  <CLASS_ASSIGNMENT>
0

$$$$
>  <MOLECULE>
Oc1c(Cl)cc(Cl)cc1C(c1cc(Cl)cc(Cl)c1O)C(Cl)(Cl)Cl

>  <CLASS_ASSIGNMENT>
1

$$$$
>  <MOLECULE>
NC(=S)N/N=C\c1nccc2c(C(F)(F)F)cccc12

>  <CLASS_ASSIGNMENT>
1

$$$$
>  <MOLECULE>
Cc1nn(CCO)c(C)c1N=[N+]([O-])c1c(C)nn(CCO)c1C

>  <CLASS_ASSIGNMENT>
1

$$$$
>  <MOLECULE>
N#CC(=C1SCS1)[N+](=O)[O-]

>  <CLASS_ASSIGNMENT>
0

$$$$
>  <MOLECULE>
CN=C(N)N/N=C(\C)c1ccc2c(c1)Cc1ccccc1-2

>  <CLASS_ASSIGNMENT>
1

$$$$
>  <MOLECULE>
c1ccc(-c2cccc(-c3ccccn3)n2)nc1

>  <CLASS_ASSIGNMENT>
1

$$$$
>  <MOLECULE>
O=C1C=CC(=O)N1c1cccc2c1CCCC2

>  <CLASS_ASSIGNMENT>
0

$$$$
>  <MOLECULE>
CC[n+]1ccc(Nc2ccc(NC(=O)c3ccc(Nc4cc[n+](CC)c5ccc([N+](=O)[O-])cc45)cc3)cc2)cc1

>  <CLASS_ASSIGNMENT>
0

$$$$
>  <MOLECULE>
Oc1ccc2ccccc2c1N=Nc1nccs1

>  <CLASS_ASSIGNMENT>
1

$$$$
>  <MOLECULE>
Cc1ccc(Nc2ccc(O)c3c2C(=O)c2c(O)ccc(Nc4ccc(C)cc4)c2C3=O)cc1

>  <CLASS_ASSIGNMENT>
0

$$$$
>  <MOLECULE>
CN(C)c1ccc(C(C#N)(c2ccccc2)c2ccc(N(C)C)cc2)cc1

>  <CLASS_ASSIGNMENT>
0

$$$$
